- Test system: Corynebacterium pyogenes CY1
- experimental-details: Veterinary bacteria, MIC by two fold serial dilution in agar
- study-conditions: CY1, 18 h
endpoint-label: MIC

CC(=CC(=O)OCc1ccc([S+](C)[O-])cc1)CC1OCC(CC2OC2C(C)C(C)O)C(O)C1O (stereo not drawn) [Example 2, p- Methylsulphinylbenzyl monate A] : > 80 µg/mL
CSc1ccc(COC(=O)C=C(C)CC2OCC(CC3OC3C(C)C(C)O)C(O)C2O)cc1 (stereo not drawn) [Example 1, p-Methylthiobenzyl monate A] : > 80 µg/mL

Consider the additional compound presented here.
Query (compound): CC(=CC(=O)OCc1cccc([S+](C)[O-])c1)CC1OCC(CC2OC2C(C)C(C)O)C(O)C1O (stereo not drawn) [Example 6, m-Methylsulfinylbenzyl monate A] ; field requested: MIC
> 80 µg/mL

Where these numbers come from: patent EP0093484A2
